Source of measurements: paper PMC10786891

Molecular target: T1, EsCas13d, nuclease-dead (Eubacterium siraeum, UniProt B0MS50, R295A;H300A;R849A;H854A)
T1 sequence: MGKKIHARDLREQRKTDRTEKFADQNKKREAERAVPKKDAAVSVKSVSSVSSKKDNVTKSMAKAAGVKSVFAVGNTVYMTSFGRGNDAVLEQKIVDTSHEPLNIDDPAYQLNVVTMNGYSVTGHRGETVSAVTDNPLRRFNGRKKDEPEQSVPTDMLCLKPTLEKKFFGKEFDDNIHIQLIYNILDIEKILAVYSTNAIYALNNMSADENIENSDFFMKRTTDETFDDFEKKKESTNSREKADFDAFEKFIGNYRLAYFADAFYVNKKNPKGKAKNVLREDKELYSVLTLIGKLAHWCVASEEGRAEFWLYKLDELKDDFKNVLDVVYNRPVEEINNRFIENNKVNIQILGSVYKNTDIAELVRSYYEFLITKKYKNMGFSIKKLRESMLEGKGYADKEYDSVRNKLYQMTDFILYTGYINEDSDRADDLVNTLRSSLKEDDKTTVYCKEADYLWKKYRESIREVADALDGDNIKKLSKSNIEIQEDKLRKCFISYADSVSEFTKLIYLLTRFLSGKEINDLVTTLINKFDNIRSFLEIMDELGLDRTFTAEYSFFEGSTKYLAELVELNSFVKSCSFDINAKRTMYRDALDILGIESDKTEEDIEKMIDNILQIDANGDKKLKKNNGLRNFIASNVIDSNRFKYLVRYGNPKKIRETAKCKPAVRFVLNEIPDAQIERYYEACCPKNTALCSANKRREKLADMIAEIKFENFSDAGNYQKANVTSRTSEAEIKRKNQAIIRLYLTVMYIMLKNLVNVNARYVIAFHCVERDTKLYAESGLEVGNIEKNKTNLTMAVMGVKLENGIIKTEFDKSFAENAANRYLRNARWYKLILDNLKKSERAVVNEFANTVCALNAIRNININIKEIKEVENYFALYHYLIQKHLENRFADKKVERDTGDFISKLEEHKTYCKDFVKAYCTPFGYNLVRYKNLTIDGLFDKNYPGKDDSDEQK
Experiment: crRNA (strand 1, pre-loaded); Mg2+; 40 mM Tris-HCl pH 7.5, 150 mM NaCl, 6 mM MgCl2, 1 mM DTT, 0.1% Tween-20, 0.2 mg/ml BSA; 25 C; 10 min per concentration, then washed
Details: tags: His6-TwinStrep-SUMO cleaved; N-terminal SNAP kept (SNAP-Surface 488); label: 3' end held by stalled T7 RNA polymerase
OBSERVATION TYPE: pKd
API: returns pKd as number; meaning -log10 of concentration in mol/L.

BINDER	pKd
target 3 insC 3' of 5,insA 3' of 2 (mixed) RNA 1: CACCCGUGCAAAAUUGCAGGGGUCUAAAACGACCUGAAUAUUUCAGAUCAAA RNA 2: GGGAAUGGAUCCACAUCUACGAAUUCGUUUUUGAUCUGAAAUAUUCACGGUACUGCAGAUCGGAAGAGCACACGU	7.80

# evaluate next
Q: Data request, read-out pKd, for target 1 insG 3' of 22,insA 3' of 7 (mixed) RNA 1: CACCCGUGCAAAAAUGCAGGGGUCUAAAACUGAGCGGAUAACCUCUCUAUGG RNA 2: GGGAAUGGAUCCACAUCUACGAAUUCGUACGCAUAGAGAGGUUAUCACGCUCACCGAGAUCGGAAGAGCACACGU
Ans: 7.82
